Exercise: state measured melting point for each of the compounds provided.

Given item Cc1ccncc1Cc1nc2c(c(C(C)C)nn2-c2c(Cl)cc(Cl)cc2Cl)c(=O)[nH]1 , the value recorded as its melting point is 225 to 227 °C

Given item Cc1ccccc1Cc1nc2c(c(C(C)C)nn2-c2c(Cl)cc(Cl)cc2Cl)c(=O)[nH]1 , the value recorded as its melting point is 194 to 195 °C

Given item CCc1nn(-c2c(Cl)cccc2Cl)c2nc(Cc3cccc(OC)c3)[nH]c(=O)c12 , the value recorded as its melting point is 186 to 187 °C

Given item CCc1nn(-c2c(C)cccc2Cl)c2nc(Cc3ccc(O)cc3)[nH]c(=O)c12 [Example 192] , the value recorded as its melting point is 257 to 259 °C

Given item CCc1nn(-c2c(C)cccc2Cl)c2nc(Cc3ccc(OC)cc3)[nH]c(=O)c12 , the value recorded as its melting point is 220 to 221 °C

Given item CC(C)c1[nH]n(-c2c(Cl)cc(Cl)cc2Cl)c2nc(Cc3ccc(NC(=O)OCCN(C)C)cc3)nc(=O)c1-2 , the value recorded as its melting point is 218 to 220 °C

Given item CSc1nn(-c2c(F)cccc2Cl)c2nc(Cc3cccc(O)c3)[nH]c(=O)c12 , the value recorded as its melting point is 252 to 253 °C
